Source listed as ChEMBL document CHEMBL1914379.

- Target system: Histamine H4 receptor (Homo sapiens)
- Sequence (Q9H3N8 whole entry): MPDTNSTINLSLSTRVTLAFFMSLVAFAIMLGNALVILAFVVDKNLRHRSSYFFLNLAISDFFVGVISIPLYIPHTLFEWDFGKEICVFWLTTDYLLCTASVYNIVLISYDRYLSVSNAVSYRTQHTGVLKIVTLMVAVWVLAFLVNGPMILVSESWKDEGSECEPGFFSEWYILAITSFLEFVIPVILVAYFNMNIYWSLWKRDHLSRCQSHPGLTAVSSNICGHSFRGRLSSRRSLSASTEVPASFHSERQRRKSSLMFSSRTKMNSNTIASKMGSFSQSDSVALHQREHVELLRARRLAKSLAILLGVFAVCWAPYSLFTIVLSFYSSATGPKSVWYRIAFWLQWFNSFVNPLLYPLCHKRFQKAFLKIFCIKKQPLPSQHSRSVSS
- Run description: Antagonist activity at full length human H4R expressed in HEK293 cells assessed as reversal of forskolin-induced cAMP production by CRE-beta-lactamase reporter gene assay
- Type: functional, cell-based
pKi: −log10 of the molar value.

Molecular string: CN1C[C@@H]2CN(C(=O)c3cc4cc(Cl)ccc4[nH]3)C[C@@H]2C1
Operator symbol: =
pKi: 7.57
//
Molecular string: CN1C[C@@H]2CN(C(=O)c3nc4cc(F)c(F)cc4[nH]3)C[C@@H]2C1
Operator symbol: =
pKi: 7.28
//
Molecular string: CNC1CN(c2cc(NCC(C)(C)C)nc(N)n2)C1
Operator symbol: =
pKi: 10.47
//
Molecular string: CN[C@@H]1CCN(c2cc(NCC3CC3)nc(N)n2)C1
Operator symbol: =
pKi: 8.81
//
Molecular string: CNC1CN(c2cc(N)nc(NCC3CC3)n2)C1
Operator symbol: <
pKi: 5.70
//
Molecular string: CNC1CN(c2cc(NCc3cccc(F)c3)nc(N)n2)C1
Operator symbol: =
pKi: 7.89
//
Molecular string: CN1C[C@@H]2CN(C(=N)c3nc4cc(F)c(F)cc4[nH]3)C[C@@H]2C1
Operator symbol: =
pKi: 8.00
//
Molecular string: CN1C[C@@H]2CN(C(=O)c3nc4cc(F)ccc4[nH]3)C[C@@H]2C1
Operator symbol: =
pKi: 7.41
//
Molecular string: CN1CCN(c2cc(NCCC(C)(C)C)ncn2)CC1
Operator symbol: =
pKi: 7.04
//
Molecular string: CNC1CN(c2cc(NCCC(C)(C)C)nc(N)n2)C1
Operator symbol: =
pKi: 8.82
